Sourced from ChEMBL document CHEMBL3507680

# assayOverview: Human HepG2 cell viability assay in 384 well format
# Assay type: toxicity, cell-based
# Design: dose 125 nL, time 70.5 hour; concentration not given beside the values
# conditionParameters: HepG2 cells, read-out: Inhibition
# maps each entry to its cytotoxicity at 70.5 h
Numbers only here, please. The scale is %.

O=C(c1ccn(-c2ccc(F)cc2)n1)N1CCCC(n2ccnc2)C1 (stereo unspecified) :: -6.02
O=C(c1ccc(Cl)c(Cl)c1)N1CCCC(n2cncn2)C1 (stereo unspecified) :: -14
O=C(c1ccoc1)N1CCC(O)(C(F)(F)F)CC1 :: -12.1
NC(=O)N1CCCC(C(=O)NCCOc2ccc3c(c2)OCO3)C1 (stereo unspecified) :: 2.99
Cc1noc(C)c1CN1CCC2(CC1)CC(Oc1cccnc1)CO2 (stereo unspecified) :: 1.43

Q. Fill blank: measured cytotoxicity at 70.5 h of the compound `CC(C)Cc1cc(C(=O)NC(C)(CO)CO)n(C)n1` is ____.
A. -16.8

Q. # input compound: COCCCC1(CO)CCCN(CCS(C)(=O)=O)C1 (stereo unspecified) ; wanted: its cytotoxicity at 70.5 h
A. -6

Q. Fill in the blank: the reported cytotoxicity at 70.5 h of CN1C(=O)C2(CCCN(C(=O)c3cccnc3O)C2)c2ccccc21 (stereo unspecified) is ____.
A. 21

Q. Entry `Nc1nnc(Cn2nnc(-c3ccccc3F)n2)s1` has what cytotoxicity at 70.5 h?
A. -12.8

Q. // returns reported cytotoxicity at 70.5 h for input CN1CCCC1CNC(=O)CCCOCc1ccccc1 (stereo unspecified)
A. -3.14

====

# assayOverview: Human HepG2 cell viability assay in 384 well format
# Assay type: toxicity, cell-based
# Design: dose 125 nL, time 70.5 hour; concentration not given beside the values
# conditionParameters: HepG2 cells, read-out: Inhibition
reportedMetric: cytotoxicity at 70.5 h (%)
Return type: number; implicit unit %.

As a guide, the following entries are already answered.
Cc1cnn(CC2CN(CC(=O)Nc3sccc3C#N)CCO2)c1 (stereo unspecified) :: -0.129
CC(C)c1nc(-c2cc(C(=O)NCCN(C)C)c3ccccn23)cs1 :: -1.61
O=C(C1CCCC1)N1C[C@@H]2CCNC[C@@H]21 :: -9.43
O=C(C1CC1)N1CC[C@H](O)[C@@H]1Cc1ccccc1 :: -3.79
CN(C)CCOCC1CN(CCN(C)C)Cc2ccnn2C1 (stereo unspecified) :: -10.7

We now examine a further compound.
Q. Fill blank: measured cytotoxicity at 70.5 h of the compound `CC(C)Cc1nc(CS(C)(=O)=O)n(-c2ccccn2)n1` is ____.
A. -7.54

====

compounds and their reported cytotoxicity at 70.5 h
# assayOverview: Human HepG2 cell viability assay in 384 well format
# Assay type: toxicity, cell-based
# Design: dose 125 nL, time 70.5 hour; concentration not given beside the values
# conditionParameters: HepG2 cells, read-out: Inhibition
I only need the number, in %, no unit after it.

Answered cases to consult:
O=C(NCCC1Cc2ccccc2C1)N1CCCC(O)C1 (centres undefined) :: 26.4
CC(NC(=O)Nc1cnn(CC(N)=O)c1)c1ccc(Cl)s1 (centres undefined) :: -1.05
FC1(F)CCN(Cc2ccccn2)CC12CCN(c1ncccn1)C2 (centres undefined) :: -7.15
CN(CC(N)=O)CC(=O)N1CC=C(c2ccccc2)CC1 :: -10.6
C[C@@H]1CN(C(=O)C2CCS(=O)(=O)CC2)CC[C@@]1(O)C1CCOCC1 :: -11

Q. # lookup: cytotoxicity at 70.5 h of Cn1ccnc1C(=O)N1CCOC(Cc2ccccc2Cl)C1 (centres undefined)
A. 11.6

Q. Report cytotoxicity at 70.5 h for `CS(=O)(=O)NC1CCN(C(=O)NCCc2ccccc2F)CC1` please.
A. -5.64
